The reported numbers originate from paper PMC11514314.

test system: NS-1 (ATCC TIB-18) mouse myeloma cells; test: Cytotoxicity resazurin assay, NS-1 cells; assay type: cell-based; details: NS1; mouse myeloma NS-1 ATCC TIB-18, 96 h; read-out: IC50 NS-1
recorded_endpoint: IC50 (µg/mL)
Output spec: scalar in µg/mL, unitless text.

Example entries and their recorded answers appear below.
[[record]]
compound_structure = "CCCCCC/C=C\\CCCCCCCc1cc(O)cc(O)c1C(=O)O"
study_target = "NS-1 (ATCC TIB-18) mouse myeloma cells"
value_observed = 0.05

[[record]]
compound_structure = "CCCCCC/C=C\\CCCCCCCc1cc(O[C@@H]2O[C@H](CO)[C@H](O)[C@H](O)[C@H]2O)cc(O)c1C(=O)OC"
study_target = "NS-1 (ATCC TIB-18) mouse myeloma cells"
value_observed = 6.3


Then this compound:
Would you please give the reported IC50 of "CCCCCC/C=C\CCCCCCCc1cc(O)cc(O)c1C(=O)Oc1cc(C)c(C(=O)O)c(O)c1" with NS-1 (ATCC TIB-18) mouse myeloma cells?
0.05
